# System: NCI-H460
# experiment: NCI tumour cell line growth inhibition, 48 h
Calls of active or inactive are those of the source. Rule as the data show it: active = GI50 up to about 1.1 µM and inactive = higher.
Classes used: yes (active), no (inactive)

>>> df
                                    compound       tgt  assigned_category
 0  Clc1ccc(COC(Cn2ccnc2)c2ccc(Cl)cc2Cl)c(Cl)c1 (stereo not drawn) [MICONAZOLE NITRATE]  NCI-H460                 no
 1  COc1ccc2c(c1)[nH]c1c3ccc(OC)cc3oc(=O)c21  NCI-H460                 no
 2        CCCn1c(SC)nc(COC(=O)NC)c1COC(=O)NC  NCI-H460                 no
 3  CCOC(=O)/C(C#N)=C/c1coc2cc(C)cc(C)c2c1=O  NCI-H460                 no
 4        O=c1nc(N2CCCCC2)sc2[nH]c3ccccc3c12  NCI-H460                 no
 5  CC(=O)/C(=C\Nc1c(C)n(C)n(C)c1=O)C(=O)c1ccccc1  NCI-H460                 no
 6  C=C1C[C@@H]2O[C@H]3[C@H]4[C@@H](C[C@@H](C)[C@@H](OC(C)=O)[C@H]42)[C@@H](C)CO[C@@]3(C)[C@H](OC(C)=O)C[C@H]1O  NCI-H460                 no
 7  c1ccc([P+](Cc2ccccc2C[P+](c2ccccc2)(c2ccccc2)c2ccccc2)(c2ccccc2)c2ccccc2)cc1  NCI-H460                 no
 8  O=c1[nH]c(=O)n(C2CC(O)C(CO)O2)cc1C1=NC1 (stereo not drawn)  NCI-H460                 no
 9      Cc1nnc2sc(-c3ccc(-c4ccccc4Cl)o3)nn12  NCI-H460                 no
10  [O-][N+]1=C2CCC/C(=N/O)C2(O)C2CCCCC21N1CCOCC1 (stereo not drawn)  NCI-H460                 no
11  C=CC1CN(C(=O)OCC)N(C(=O)OCC)C1CCc1ccccc1 (stereo not drawn)  NCI-H460                 no
12               Nc1ncnc2c1cnn2Cc1ccc(Cl)cc1  NCI-H460                 no
13  Nc1nc(=O)c2c([nH]1)NCC(CNc1ccc(C(=O)N[C@@H](CCC(=O)O)C(=O)O)cc1)N2C=O (stereo partly drawn)  NCI-H460                 no
14       Nc1ccc(Cc2c(N)[nH]c(=O)[nH]c2=O)cc1  NCI-H460                 no
15  COC(=O)C(NC(=O)c1ccccc1)C(c1c(O)cc(O)cc1O)P(=O)(OC)OC (stereo not drawn)  NCI-H460                 no
16                    Cc1cc2c(O)nc(N)nc2nc1C  NCI-H460                 no
17  C1OC1CN1CCN(CC2CO2)CC1 (stereo not drawn)  NCI-H460                 no
18  N#CC12C3C4CC5C6C4C1C6C(O)(C53)N2Cc1ccccc1 (stereo not drawn)  NCI-H460                 no
19  C=CCCCCCCCCCOC1C=CC(OC(C)=O)C(COC(C)=O)O1 (stereo not drawn)  NCI-H460                 no
20  CCOC(=O)c1nc2cc(F)c(F)cc2nc1NCc1cc(OC)c(OC)c(OC)c1  NCI-H460                 no
21  CCCC[S+]([O-])CCC(N)P(=O)(O)O (stereo not drawn)  NCI-H460                 no
22  NC(=O)NC(CC(=O)O)C(=O)O (stereo not drawn)  NCI-H460                 no
23  CCOC(=O)C1(NC(=O)OC(C)(C)C)CCc2[nH]oc(=O)c2C1 (stereo not drawn)  NCI-H460                 no
24  COC(=O)c1ccc(/N=N/N(C)COc2ccc(C#N)cc2)cc1  NCI-H460                 no
25                  O=C(O)Cc1c(O)ccc2ccccc12  NCI-H460                 no
26  COC1=CC(=O)C2=C(C1=O)[C@H]1CC[C@]3(C)C(=O)CC[C@H]3[C@@H]1CC2  NCI-H460                 no
27               C/C(=N\NC(N)=S)c1ccc(C)cc1C  NCI-H460                 no
28               COC1=Nc2ccccc2S(=O)(=O)C=C1  NCI-H460                 no
29  CC1(C)C2CCC(N)(C2)C1O (stereo not drawn)  NCI-H460                 no
30         O=C1Nc2ccccc2/C1=N\c1cccc2ncccc12  NCI-H460                 no
31  CCOC(=O)CCC(NC(=O)Cc1ccc(Oc2nc3ccccc3nc2-c2ccccc2)cc1)C(=O)OCC (stereo not drawn)  NCI-H460                 no
32          O=C(CCc1cccc(O)c1)NCCc1cccc(O)c1  NCI-H460                 no
33  C/C=C/C(O)P(=O)(OC)OC (stereo not drawn)  NCI-H460                yes
34  CC1=NNC(=O)[C@H]2[C@H]1CCC1[C@@H]2CC[C@]2(C)[C@@H](O)CC[C@@H]12 (stereo partly drawn)  NCI-H460                 no
35  Cc1c(C(=O)C/C(=N\O)C(=O)Nc2cc(Cl)c(Cl)cc2Cl)[n+]([O-])c2ccccc2[n+]1[O-]  NCI-H460                 no
36           CC1=CC[C@@H](C(C)(C)O)C[C@@H]1O  NCI-H460                 no
37  COC(=O)C(Cc1nc2ccc(Cl)cc2nc1O)/C(=N\N)C(=O)Nc1cc(C)c(Cl)cc1S(=O)(=O)O (stereo not drawn)  NCI-H460                 no
